Structures can show the parent of a compound that is named as a salt.
Each entry below lists one item and its recorded melting point value.

Consider the following illustrative entries.
{"Compound": "CCCCOc1ccc(S(C)(=O)=O)cc1-c1nc2c(CC)nn(Cc3ccccn3)c2c(=O)[nH]1 (as salt: potassium)", "melting point": "189 to 191 °C"}
{"Compound": "CCc1nn(Cc2cccnn2)c2c(=O)[nH]c(-c3cc(S(C)(=O)=O)ccc3OCC(C)C)nc12", "melting point": "231 to 234 °C"}
{"Compound": "CCCc1nn(C)c2c(=O)[nH]c(-c3cc(S(C)(=O)=O)ccc3OCC)nc12", "melting point": "235 to 236 °C"}

Q) May I ask what melting point has been recorded for CCc1c2nc(-c3cc(S(C)(=O)=O)ccc3OCC(C)C)[nH]c(=O)c2nn1C1CCN(C(C)C)CC1 ?
A) 273 to 275 °C

Q) May I ask what melting point has been recorded for CCCOc1ncc(S(C)(=O)=O)cc1-c1nc2c(CC)nn(C[C@@H]3CCCN3C)c2c(=O)[nH]1 ?
A) 182 to 183 °C

----------
Each entry below lists one item and its recorded melting point value.

{"Molecule": "CCCOc1ccc(S(C)(=O)=O)cc1-c1nc2c(CC)nn(C[C@@H]3CCCN3C)c2c(=O)[nH]1 [Example 18]", "Quantity": "melting point", "Reported": "211 to 215 °C"}
{"Molecule": "CCc1c2nc(-c3cc(S(C)(=O)=O)ccc3OCC(C)C)[nH]c(=O)c2nn1C[C@H]1CCCN1C [Example 14]", "Quantity": "melting point", "Reported": "178 to 180 °C"}
{"Molecule": "CCc1n[nH]c2c(=O)[nH]c(-c3cc(S(C)(=O)=O)ccc3OCc3ccccn3)nc12 [Example 6]", "Quantity": "melting point", "Reported": "283 to 286 °C"}

Turning to the following molecule.
Q) May I ask what melting point has been recorded for CCCCOc1ccc(S(C)(=O)=O)cc1-c1nc2c(CC)n(C3CN(C(C)C)C3)nc2c(=O)[nH]1 [Example 19] ?
A) 209 to 213 °C

----------
Each entry below lists one item and its recorded melting point value.

Consider the following illustrative entries.
{"Compound structure string": "CCc1nn(Cc2nccn2C)c2c(=O)[nH]c(-c3cc(S(C)(=O)=O)ccc3OCC(C)C)nc12", "Reported": "253 to 254 °C"}
{"Compound structure string": "CCCOc1ccc(S(C)(=O)=O)cc1-c1nc2c(CC)n(CC3CC3)nc2c(=O)[nH]1", "Reported": "233 to 234 °C"}
{"Compound structure string": "CCc1c2nc(-c3cc(S(C)(=O)=O)ccc3OCC(C)C)[nH]c(=O)c2nn1Cc1cccnn1", "Reported": "244 to 247 °C"}
{"Compound structure string": "CCc1c2nc(-c3cc(S(C)(=O)=O)ccc3OCC(C)C)[nH]c(=O)c2nn1CCN1CCOCC1", "Reported": "268 to 273 °C"}
{"Compound structure string": "CCc1c2nc(-c3cc(S(C)(=O)=O)ccc3OCC(C)C)[nH]c(=O)c2nn1C1CCN(C)CC1", "Reported": "292 to 295 °C"}
{"Compound structure string": "CCc1nn(C[C@@H]2CCCN2C)c2c(=O)[nH]c(-c3cc(S(C)(=O)=O)ccc3OCC(C)C)nc12", "Reported": "190 to 194 °C"}
{"Compound structure string": "CCc1nn(Cc2ccccn2)c2c(=O)[nH]c(-c3cc(S(C)(=O)=O)ccc3OCC(C)C)nc12", "Reported": "223 to 225 °C"}

Q) May I ask what melting point has been recorded for C=CCc1nc(CC)n2nc(-c3cc(S(C)(=O)=O)ccc3OCCCC)[nH]c(=O)c12 ?
A) 192 to 194 °C
